# Tested on: ACHN renal
# TEST: NCI-60 one-dose screen, 48 h (100 = growth as untreated, 0 = no growth, -100 = all killed)
# PARTICULARS: 10 µM unless noted
The panel holds about 83,000 compounds, 20% with a hit somewhere; the sample as a whole holds those more often.
QUANTITY_NAME: growth (%)
Provide only the numeric value, understood in %.

Some compounds with recorded growth:
Prompt: Provide growth, recorded with ACHN renal, of `C=CCn1c(SCC(=O)Nc2ccc(C(=O)/C=C/c3ccc(Cl)cc3)cc2)nnc1-c1ccc(Cl)cc1`
Response: 101

Prompt: Provide growth, recorded with ACHN renal, of `O=c1c2sc3ccccc3c2nnn1-c1ccc(F)c(Cl)c1`
Response: 4.64

Prompt: Provide growth, recorded with ACHN renal, of `O=C(c1ccc(C(F)(F)F)c(Cl)c1)N(Cc1ccc(Cl)cc1)c1ccc(-c2cc(C(F)(F)F)[nH]n2)c(O)c1`
Response: 3.03

Prompt: Provide growth, recorded with ACHN renal, of CCN(CC)CCCC(C)N/C(c1cccc(OC)c1)=c1\c(=O)[nH]n(-c2c3ccccc3nc3ccccc23)c(=O)\c1=C(/NC(C)CCCN(CC)CC)c1cccc(OC)c1 (stereo not given)
Response: -61.8

Prompt: Provide growth, recorded with ACHN renal, of `Cc1ccc2nc(CN(CCN(Cc3nc4ccc(C)cc4[nH]3)Cc3nc4ccc(C)cc4[nH]3)Cc3nc4ccc(C)cc4[nH]3)[nH]c2c1`
Response: -99.2

Prompt: Provide growth, recorded with ACHN renal, of `COc1ccc(NC(=O)c2ccc(C(F)(F)F)nc2Nc2ccc(Cl)cc2C)cc1Cl`
Response: 14.5

Others:
Prompt: Provide growth, recorded with ACHN renal, of `Cc1cc2nc3c(=O)[nH]c(=O)nc-3n(CC=O)c2cc1C`
Response: 105

Prompt: Provide growth, recorded with ACHN renal, of `Cc1nc2n[nH]c(N)c2nc1C`
Response: 104

Prompt: Provide growth, recorded with ACHN renal, of CNCc1ccccc1CN(CC(=O)Nc1ccc2c(c1)CC1(C2)C(=O)Nc2ncccc21)C(=O)C(C)(C)C (stereo not given)
Response: 107

Prompt: Provide growth, recorded with ACHN renal, of `Cn1nc(C(F)(F)F)cc1-c1c[nH]c(OCc2ccc(Cl)cc2)c(-c2ccc(Cl)c(C(F)(F)F)c2)c1=O`
Response: -15.8

Prompt: Provide growth, recorded with ACHN renal, of `CC(=O)Nc1nonc1-c1nc2ccccc2n1Cc1ccc(C(C)(C)C)cc1`
Response: 82.1

Prompt: Provide growth, recorded with ACHN renal, of O=C(O)C1[S][Sb]([CH](C(=O)O)[CH](C(=O)O)[Sb]2[S]C(C(=O)O)C(C(=O)O)[S]2)[S]C1C(=O)O (stereo not given)
Response: 96.5

* * *

# Test system: SK-MEL-5 melanoma
# TEST: NCI-60 one-dose screen, 48 h (100 = growth as untreated, 0 = no growth, -100 = all killed)
# PARTICULARS: 10 µM unless noted
About 83,000 compounds went through this panel and 20% of them were active in at least one assay; those are over-represented in the sample as a whole.
QUANTITY_NAME: growth (%)
Provide only the numeric value, understood in %.

Some compounds with recorded growth:
Prompt: Please supply the value of reported growth for the item `COc1ccc(-c2nn(-c3cccc(Cl)c3)cc2/C=C2\C(=N)N(c3ccccc3)N=C2N)cc1`
Response: 34.8

Prompt: Please supply the value of reported growth for the item `Clc1ccc(Nc2ncnc3c2sc2ncccc23)c(Cl)c1`
Response: 28

Others:
Prompt: Please supply the value of reported growth for the item O=C(O)C1[S][Sb]([CH](C(=O)O)[CH](C(=O)O)[Sb]2[S]C(C(=O)O)C(C(=O)O)[S]2)[S]C1C(=O)O (stereo not drawn)
Response: 3.78

* * *

# Tested on: RXF 393 renal
# TEST: NCI-60 one-dose screen, 48 h
# PARTICULARS: 10 µM unless noted
The panel holds about 83,000 compounds, 20% with a hit somewhere; the sample as a whole holds those more often. The source made the active and inactive calls. How the source made its calls: active means growth percent below 10; inactive means the rest.
Field 'call' accepts active, inactive

Prompt: Please indicate how the test categorized CCN(CC)CCCC(C)N/C(c1cccc(OC)c1)=c1\c(=O)[nH]n(-c2c3ccccc3nc3ccccc23)c(=O)\c1=C(/NC(C)CCCN(CC)CC)c1cccc(OC)c1 (centres undefined) .
Response: active

Prompt: Please indicate how the test categorized `CN(C)c1ccc(/C=C(\C#N)c2nc3ccccc3n2C)cc1` .
Response: active

Prompt: Please indicate how the test categorized `Cc1cc(C)cc(CCCCCCCCCCCCCCCCCC(=O)O)c1` .
Response: inactive

Others:
Prompt: Please indicate how the test categorized `CCCNC(=S)N/N=C(\C)c1ccccn1` .
Response: inactive

* * *

# System: SK-MEL-5 melanoma
# TEST: NCI-60 one-dose screen, 48 h
# PARTICULARS: 10 µM unless noted
Compounds without any hit were thinned out: in the full panel of roughly 83,000, 20% have a hit. Active and inactive are the calls of the source. The calls were made as follows: active = growth percent below 10; inactive = the rest.
Field 'call' accepts active, inactive

Use the examples below as a reference point.
Prompt: Please indicate how the test categorized `Cc1nc2ccc(Nc3nc(Cl)nc(N4CCOCC4)n3)cc2n1Cc1ccccc1` .
Response: inactive

Prompt: Please indicate how the test categorized `CCCCN(CCCC)CCC(=O)c1ccc(OC)c2ccccc12` .
Response: inactive

Read the next record carefully.
Prompt: Please indicate how the test categorized N#Cc1c(NN)n(C2OC(CO)C(O)C2O)c2ncnc(N)c12 (stereo not drawn) .
Response: active

* * *

# Test system: SNB-75 CNS
# TEST: NCI-60 one-dose screen, 48 h
# PARTICULARS: 10 µM unless noted
Compounds without any hit were thinned out: in the full panel of roughly 83,000, 20% have a hit. The source made the active and inactive calls. The calls were made as follows: active = growth percent below 10; inactive = the rest.
Field 'call' accepts active, inactive

Prompt: Please indicate how the test categorized `CCN(C(=O)Nc1cccc2ccccc12)c1ccccc1` .
Response: inactive

Prompt: Please indicate how the test categorized OC(c1cc2cc(Cl)ccc2c2cc(C(F)(F)F)ccc12)C1CCCCN1 (stereo unspecified) .
Response: active

Prompt: Please indicate how the test categorized `C=CCn1c(C)nc2cc(Nc3nc(N4CCOCC4)nc4nc[nH]c34)ccc21` .
Response: inactive

Prompt: Please indicate how the test categorized `NNC(=O)Cc1ccccc1` .
Response: inactive

Others:
Prompt: Please indicate how the test categorized `COc1ccc(C2=Nn3c(nnc3-c3ccc(Cl)cc3N)SC2)cc1` .
Response: inactive

Prompt: Please indicate how the test categorized COc1ccc(C2CC(c3cccc(Nc4ccnc5cc(Cl)ccc45)c3)=NN2c2ccc(Cl)cc2)cc1 (stereo unspecified) .
Response: inactive

Prompt: Please indicate how the test categorized O=C1CC2(O)CSc3nc(=O)cc(n32)N1 (stereo unspecified) .
Response: inactive

Prompt: Please indicate how the test categorized `CCn1c(CN2CCN(Cc3ccccc3)CC2)nc2cc(NC(=O)c3cccs3)ccc21` .
Response: active

Prompt: Please indicate how the test categorized `COc1ccc(/C=c2\c(=O)n(-c3ccccc3)c3nn4c(=O)c(=O)[nH]nc4n23)cc1` .
Response: inactive

Prompt: Please indicate how the test categorized `CCCCn1c(C)nc2cc(Nc3nc(Cl)nc4nc[nH]c34)ccc21` .
Response: inactive

Prompt: Please indicate how the test categorized `Cc1cc(C#Cc2ccccc2)ccc1-n1c(/C=C/c2ccc(F)cc2)nc2ccccc2c1=O` .
Response: inactive

* * *

# System: HCT-15 colon
# TEST: NCI-60 one-dose screen, 48 h (100 = growth as untreated, 0 = no growth, -100 = all killed)
# PARTICULARS: 10 µM unless noted
About 83,000 compounds went through this panel and 20% of them were active in at least one assay; those are over-represented in the sample as a whole.
QUANTITY_NAME: growth (%)
Provide only the numeric value, understood in %.

Some molecules with recorded growth:
Prompt: Please supply the value of reported growth for the item `CCN(CC)c1ccc(C(=N)c2ccc(N(C)C)cc2)cc1`
Response: 10.9

Prompt: Please supply the value of reported growth for the item COc1cccc(OCC(O)CN2CCN(c3ccccc3)CC2)c1 (stereo not given)
Response: 117

Prompt: Please supply the value of reported growth for the item `CCCCN(CCCC)CCC(=O)c1ccc(OC)c2ccccc12`
Response: 99.7

Prompt: Please supply the value of reported growth for the item `COc1ccc(-c2oc(=O)ccc2-c2cc(OC)c(OC)c(OC)c2)cc1F`
Response: 68.2

Prompt: Please supply the value of reported growth for the item `CC(=O)c1ccc(-n2c(-c3cc(-c4ccsc4)n[nH]3)n[nH]c2=S)cc1`
Response: 96.5

Prompt: Please supply the value of reported growth for the item COc1cc(C2Nc3ccccc3S2)cc(CN2CCOCC2)c1O (stereo not given)
Response: 52.3

Prompt: Please supply the value of reported growth for the item `O=C1Nc2ccccc2/C1=C/c1c[nH]c2ccccc12`
Response: 63.9

Prompt: Please supply the value of reported growth for the item `C#CC[C@@H]1C[C@]2(C)[C@H]3CC=C4[C@H]5[C@@H](C)[C@H](C)CC[C@]5(C(=O)NCCCN5CCN(CCCN)CC5)CC[C@@]4(C)[C@]3(C)CC[C@H]2C(C)(C)[C@H]1OC(C)=O`
Response: -83.7

Others:
Prompt: Please supply the value of reported growth for the item `Oc1ccc(Cl)cc1-c1cc(-c2ccccc2Cl)[nH]n1`
Response: 29.2

Prompt: Please supply the value of reported growth for the item `COc1ccc(C(=O)c2cc(C)c(OC)c(C)c2)cc1OC(=O)CCl`
Response: 13.1

Prompt: Please supply the value of reported growth for the item COc1ccc2c(c1)CCCC21C(=O)Nc2c(Cl)cccc21 (stereo not given)
Response: 85
